Here the recorded IC50 is given for each entry.
target: rat NaPi-2b (Rattus norvegicus, UniProt Q9JJ09); assay: Sodium-dependent phosphate uptake of Xenopus oocytes which expressed NaPi-2b (32P); details: Xenopus oocytes expressing rat NaPi-2b, 32P radioactive phosphorus; read-out: IC50 (phosphate uptake inhibitory activity)
Give the value, in units of µM, as a plain number.

Example cases with answers are listed next.
molecule | measured
COc1ccc(C(=O)Nc2ccccc2C(=O)N/N=C/c2ccc(N(C)C)cc2)cc1OC [Compound 104] | 11.3
CCN(CC)CCN(C)Cc1cccc(C(=O)Nc2ccc(N3CCN(CCO)CC3)cc2C(=O)N/N=C/c2ccc(Cl)c(C(F)(F)F)c2)c1 [Compound 924] | 40.2
COc1ccc(C(=O)Nc2ccc(Br)cc2C(=O)N/N=C/c2cccnc2)cc1OC [Compound 110] | 7.7
O=C(Nc1ccc(N2CCN(CCO)CC2)cc1C(=O)N/N=C/c1ccc(Cl)c(C(F)(F)F)c1)c1cccc(CSCCO)c1 [Compound 923] | 18.8
O=C(Nc1sc2c(c1C(=O)N/N=C/c1cccc(F)c1)CCC2)c1cccc(CN2CCC(CO)CC2)c1 [Compound 819] | 5.95

I'd like to know its IC50. The molecule in question is CCSCCNCc1ccc(C(=O)Nc2ccc(Br)cc2C(=O)N/N=C/c2ccc(C)c(C)c2)cc1 [Compound 764]
5.92

Do the same for CCN(CC)CCNCc1ccc(C(=O)Nc2ccc(Br)cc2C(=O)N/N=C/c2ccc(C)c(C)c2)cc1 [Compound 292] please
3.5

Do the same for Cc1ccc(/C=N/NC(=O)c2c(NC(=O)c3cccc(CN(CC(C)O)CC(C)O)c3)sc3ccccc23)cc1C (centres unmarked) [Compound 792] please
1.26

Do the same for Cc1cccc(/C=N/NC(=O)c2cc(Br)ccc2NC(=O)c2ccncc2)c1 [Compound 168] please
4.84

Do the same for Cc1cccc(/C=N/NC(=O)c2cc(Br)ccc2NC(=O)c2ccc(CN3CCN(CC(=O)N4CCOCC4)CC3)cc2)c1 [Compound 729] please
27.3

---

Here the recorded IC50 is given for each entry.
Target: rat NaPi-2b (Rattus norvegicus)
Sequence (Q9JJ09 1-695): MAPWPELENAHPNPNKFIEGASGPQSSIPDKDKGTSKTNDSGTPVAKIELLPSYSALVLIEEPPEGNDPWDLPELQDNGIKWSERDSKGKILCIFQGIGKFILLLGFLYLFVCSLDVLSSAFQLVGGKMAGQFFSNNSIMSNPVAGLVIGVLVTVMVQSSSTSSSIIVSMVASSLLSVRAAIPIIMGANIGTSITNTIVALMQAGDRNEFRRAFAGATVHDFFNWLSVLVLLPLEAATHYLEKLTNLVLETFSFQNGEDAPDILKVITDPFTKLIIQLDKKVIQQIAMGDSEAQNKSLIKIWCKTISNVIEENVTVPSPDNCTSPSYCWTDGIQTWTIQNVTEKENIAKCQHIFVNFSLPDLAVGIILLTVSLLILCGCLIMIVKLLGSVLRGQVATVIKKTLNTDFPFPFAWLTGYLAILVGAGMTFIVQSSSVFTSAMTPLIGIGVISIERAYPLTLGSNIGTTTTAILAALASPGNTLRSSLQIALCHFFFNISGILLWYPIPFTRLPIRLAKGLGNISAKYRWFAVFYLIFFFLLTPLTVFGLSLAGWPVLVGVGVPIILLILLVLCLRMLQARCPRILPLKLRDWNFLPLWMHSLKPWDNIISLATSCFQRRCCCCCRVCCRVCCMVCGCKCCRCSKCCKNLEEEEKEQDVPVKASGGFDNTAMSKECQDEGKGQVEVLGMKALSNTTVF
Experiment: Sodium-dependent phosphate uptake of Xenopus oocytes which expressed NaPi-2b (32P)
Conditions: Xenopus oocytes expressing rat NaPi-2b, 32P radioactive phosphorus; read-out: IC50 (phosphate uptake inhibitory activity)
Give the value, in units of µM, as a plain number.

Example cases with answers are listed next.
molecule | IC50, µM
CCN1CC(NCc2ccc(-c3nc4ccc(Br)cc4c(=O)n3/N=C/c3ccc(Cl)c(C(F)(F)F)c3)cc2)CN1CC [Compound 753] | 12.4
Cc1ccc(/C=N/NC(=O)c2c(C)csc2NC(=O)c2cccc(CSc3nc[nH]n3)c2)cc1C [Compound 551] | 0.47
CCN(CC)CCN(C)Cc1cccc(C(=O)Nc2ccc(OCCOCCOC)cc2C(=O)N/N=C/c2ccc(C)c(C)c2)c1 [Compound 1035] | 3.7
COc1cccc(/C=N/NC(=O)c2cc(Cl)ccc2NC(=O)c2cccc(CN(CCO)CCO)c2)c1 [Compound 408] | 0.69
Cc1ccc(/C=N/NC(=O)c2cc(Cl)ccc2NC(=O)c2cccc(CSc3nc[nH]n3)c2)cc1 [Compound 392] | 1.42

Next, consider the following molecule.
I'd like to know its IC50. The molecule in question is Cc1ccc(/C=N/NC(=O)c2cscc2NC(=O)c2cccc(CN3CCN(CCO)CC3)c2)cc1C [Compound 982]
8.05

From: patent US8134015B2
